tested on: B6C3F1 mice, B16 melanoma ip, median survival T/C; test: NCI In Vivo Anticancer Drug Screen. Data for tumor model B16 Melanoma (intraperitoneal) in B6C3F1 mice; settings: endpoint: median survival time; dose: 12.5 mg/kg/injection; schedule: Q01DX009 (ip); vehicle: saline with Tween-80; higher = longer survival
Toxic doses and inconclusive results are not listed.
Readout kind: T/C

Smiles representation: CNc1cccnc1/C=N/NC(N)=S
Readout kind: T/C
Result: 119 % of control

Smiles representation: [O-][n+]1c(CN2CCCCC2)nc2cccc3c2c1-c1ccccc1-3
Readout kind: T/C
Result: 98 % of control

Smiles representation: N#Cc1c(N)[nH]c2ccc(Sc3ccccc3)cc12
Readout kind: T/C
Result: 94 % of control

Smiles representation: O=S(=O)(N=N/C=C1\C=CC=CN1O)c1cccs1
Readout kind: T/C
Result: 101 % of control

* * *

Overview of recorded T/C for various compounds
system: B6C3F1 mice, B16 melanoma ip, median survival T/C; assay: NCI In Vivo Anticancer Drug Screen. Data for tumor model B16 Melanoma (intraperitoneal) in B6C3F1 mice; conditions: endpoint: median survival time; dose: 10.0 mg/kg/injection; schedule: Q01DX009 (ip); vehicle: Klucel (hydroxypropylcellulose) (HPC); higher = longer survival
Inconclusive results and toxic doses are left out.
Readout kind: T/C

Compound: CC(=O)OCC1OC([S-])C(OC(C)=O)C(OC(C)=O)C1OC(C)=O.CC[PH+](CC)CC.CC[PH+](CC)CC.[Au].[Au] (centres undefined)
Readout kind: T/C
Result: 92 % of control

Compound: Cc1c2ccc3ccccc3c2c[n+]2ccccc12
Readout kind: T/C
Result: 96 % of control

Compound: COc1cc2cc3c(c(O)c2c(O)c1/C=C/C(C)C)C(=O)CC(C)(OC(C)=O)C3 (centres undefined)
Readout kind: T/C
Result: 100 % of control

Compound: O=C1c2ccccc2CCC1(Br)Br
Readout kind: T/C
Result: 90 % of control

* * *

system: B6C3F1 mice, B16 melanoma ip, median survival T/C; experiment: NCI In Vivo Anticancer Drug Screen. Data for tumor model B16 Melanoma (intraperitoneal) in B6C3F1 mice; conditions: endpoint: median survival time; dose: 1.0 mg/kg/injection; schedule: Q01DX009 (ip); vehicle: saline + alcohol
Inconclusive results and toxic doses are left out. Rule for the calls: active = survival T/C of 150% or more; inactive = T/C below 125% in these data.
Labels: yes for active, no for inactive

Molecule: C=C1C(O)C2(O)OCC34C(CC5C(C)=CC(=O)C(O)C5(C)C23)OC(=O)C(OC(=O)C(C)(O)CC)C14 (stereo not given)
Category label: no

Molecule: CC1=C(C)C(=O)O[C@@H]([C@](C)(O)[C@]2(O)CC[C@@]3(O)[C@@H]4C[C@H]5O[C@]56[C@@H](O)C=CC(=O)[C@]6(C)[C@H]4CC[C@]23C)C1
Category label: no

Molecule: CCC(C)C(=O)O[C@H]1C(=O)O[C@@H]2C[C@H]3C(C)=CC(=O)[C@@H](O)[C@]3(C)[C@H]3[C@@H](O)[C@H](O)[C@@]4(C)OC[C@]32[C@@H]14 (stereo not given in full)
Category label: yes

Molecule: COC(=O)[C@@]12OC[C@]34[C@H]([C@@H](O)[C@@H]1O)[C@@]1(C)CC(=O)C(O)=C(C)[C@@H]1C[C@H]3OC(=O)[C@H](OC(=O)/C=C(/C)C(C)(C)O)[C@@H]24
Category label: no

Molecule: COC(=O)C12OCC34C(CC5C(C)=CC(=O)C(O)C5(C)C3C(O)C1O)OC(=O)C(OC(=O)CC(C)C)C24 (stereo not given)
Category label: yes

* * *

test system: B6C3F1 mice, B16 melanoma ip, median survival T/C; test: NCI In Vivo Anticancer Drug Screen. Data for tumor model B16 Melanoma (intraperitoneal) in B6C3F1 mice; conditions: endpoint: median survival time; dose: 100.0 mg/kg/injection; schedule: Q01DX009 (ip); vehicle: saline
Toxic doses and inconclusive results are not listed. The calls were made as follows: active = survival T/C of 150% or more; inactive = T/C below 125% in these data. Where a SMILES comes first, the peptide text is derived from it.
Labels: active, inactive

Compound: C=C1CCOC2(C(O)C(C)(O)CO)NC(=O)C1(O)NC2=O (centres undefined)
Study system: B6C3F1 mice, B16 melanoma ip, median survival T/C
Category label: inactive
//
Compound: CC(/C=N/N=C(N)N)=N\N=C(N)N
Study system: B6C3F1 mice, B16 melanoma ip, median survival T/C
Category label: inactive
//
Compound: CC(C)C(NC(=O)C(F)(F)F)C(=O)O (centres undefined)
Study system: B6C3F1 mice, B16 melanoma ip, median survival T/C
Category label: inactive
//
Compound: Cn1cnc([N+](=O)[O-])c1SCC(=O)O
Study system: B6C3F1 mice, B16 melanoma ip, median survival T/C
Category label: inactive
//
Compound: NCC(=O)NC(CC(N)=O)C(=O)O (centres undefined) (HELM PEPTIDE1{G.[NC(=O)CC(N[*:1])C(=O)O]}$$$$V2.0)
Study system: B6C3F1 mice, B16 melanoma ip, median survival T/C
Category label: inactive
//
Compound: CC(C)=CCN1C(=O)c2ccccc2C1=O
Study system: B6C3F1 mice, B16 melanoma ip, median survival T/C
Category label: inactive
//
Compound: CC1(C)COCN1COC1CCCCC1
Study system: B6C3F1 mice, B16 melanoma ip, median survival T/C
Category label: inactive
//
Compound: CC(NC(=O)C1CCCN1C(=O)CN)C(=O)O (centres undefined)
Study system: B6C3F1 mice, B16 melanoma ip, median survival T/C
Category label: inactive
//
Compound: NCC(=O)N1CCCC1C(=O)NCC(=O)NCC(=O)O (centres undefined) (HELM PEPTIDE1{G.[O=C(C1CCCN1[*:1])[*:2]].G.G}$$$$V2.0)
Study system: B6C3F1 mice, B16 melanoma ip, median survival T/C
Category label: inactive
//
Compound: CCCCN(CCCC)CCNc1ccc(Cl)c2oc3cc(C)ccc3c(=O)c12
Study system: B6C3F1 mice, B16 melanoma ip, median survival T/C
Category label: inactive
//
Compound: CC(N)C(=O)NC(CC(N)=O)C(=O)O (centres undefined)
Study system: B6C3F1 mice, B16 melanoma ip, median survival T/C
Category label: inactive
//
Compound: NC(N)=O
Study system: B6C3F1 mice, B16 melanoma ip, median survival T/C
Category label: inactive
//
Compound: CC(=O)CC(=O)CCC(=O)O
Study system: B6C3F1 mice, B16 melanoma ip, median survival T/C
Category label: inactive
//
Compound: CCCCCC#CC1OC12CCCCC2 (centres undefined)
Study system: B6C3F1 mice, B16 melanoma ip, median survival T/C
Category label: inactive
//
Compound: COc1cc(C2c3cc4c(cc3[C@@H](OC3OC5CO[C@@H](C)OC5C(O)C3O)[C@H]3COC(=O)C23)OCO4)cc(OC)c1OC (some centres undefined)
Study system: B6C3F1 mice, B16 melanoma ip, median survival T/C
Category label: active
//
Compound: O=C(O)CCC(NC(=O)OCc1ccccc1)C(=O)NCC(=O)O (centres undefined) (HELM PEPTIDE1{[O=C(OCc1ccccc1)[*:2]].[O=C(O)CCC(N[*:1])C(=O)[*:2]].G}$$$$V2.0)
Study system: B6C3F1 mice, B16 melanoma ip, median survival T/C
Category label: inactive
//
Compound: CCCCCCCCCCCCCCCCCC1=NC(C)CC(C)(C)O1 (centres undefined)
Study system: B6C3F1 mice, B16 melanoma ip, median survival T/C
Category label: inactive
//
Compound: NC1=NCN(C2OC(CO)C(O)C2O)C(=O)N1 (centres undefined)
Study system: B6C3F1 mice, B16 melanoma ip, median survival T/C
Category label: inactive
//
Compound: O=C1OC(=O)[C@H]2[C@@H]1[C@H]1C=C[C@@H]2OC1=O
Study system: B6C3F1 mice, B16 melanoma ip, median survival T/C
Category label: inactive
//
Compound: O=C(/C=C(\Cl)C(=O)NO)NO
Study system: B6C3F1 mice, B16 melanoma ip, median survival T/C
Category label: inactive
//
Compound: CN1[C@@H](CC(=O)c2ccccc2)CCC[C@H]1CC(=O)c1ccccc1
Study system: B6C3F1 mice, B16 melanoma ip, median survival T/C
Category label: inactive
//
Compound: NC(CCCNc1ccc(O)cc1)C(=O)O (centres undefined)
Study system: B6C3F1 mice, B16 melanoma ip, median survival T/C
Category label: inactive
//
Compound: Nc1ccc(OC(=O)Oc2ccc(N)cc2)cc1
Study system: B6C3F1 mice, B16 melanoma ip, median survival T/C
Category label: inactive
//
Compound: O=C(O)CSC(CC(=O)O)C(=O)O (centres undefined)
Study system: B6C3F1 mice, B16 melanoma ip, median survival T/C
Category label: inactive

* * *

T/C: recorded values
system: B6C3F1 mice, B16 melanoma ip, median survival T/C; experiment: NCI In Vivo Anticancer Drug Screen. Data for tumor model B16 Melanoma (intraperitoneal) in B6C3F1 mice; conditions: endpoint: median survival time; dose: 12.5 mg/kg/injection; schedule: Q01DX009 (ip); vehicle: Klucel (hydroxypropylcellulose) (HPC); higher = longer survival
Toxic doses and inconclusive results are not listed.

Compound: CCCCc1ccc(-n2c(C)c(COC(=O)NC)c(COC(=O)NC)c2C)cc1
T/C: 174 % of control
//
Compound: O=C(O)C1CSCN1 (stereo not given)
T/C: 87 % of control
//
Compound: C[As](C)SCCC(N)C(=O)NC(CCS[As](C)C)C(=O)O (stereo not given)
T/C: 91 % of control
//
Compound: Oc1c(Cl)cc(Cl)cc1C1N2CCCCC2C2c3cccn3-c3ccccc3N21 (stereo not given)
T/C: 101 % of control
//
Compound: C[C@]12CC[C@@H]3c4ccc(O)cc4CC[C@H]3[C@@H]1CC[C@@H]2O
T/C: 98 % of control
//
Compound: N#C[Se-].c1ccc([Te+](c2ccccc2)c2ccccc2)cc1
T/C: 96 % of control
//
Compound: CCCCCC[C@H]([C@H](C)O)n1cnc2c(N)ncnc21
T/C: 122 % of control
//
Compound: O=C(O)c1cc(Cc2ccc(O)c(C(=O)O)c2)ccc1O (tested in a mixture with another compound)
T/C: 105 % of control
//
Compound: C=C(NC(=O)C(=C)NC(=O)c1csc(C2=NC3c4csc(n4)C4NC(=O)c5csc(n5)C(C(C)(O)C(C)O)NC(=O)C5CSC(=N5)/C(=C/C)NC(=O)C(C(C)O)NC(=O)c5csc(n5)C3(CC2)NC(=O)C(C)NC(=O)C(=C)NC(=O)C(C)NC(=O)C(C(C)CC)NC2C=Cc3c(C(C)O)cc(nc3C2O)C(=O)OC4C)n1)C(N)=O (stereo not given)
T/C: 116 % of control
//
Compound: CC1=NNC(=O)C1CCO (stereo not given)
T/C: 98 % of control
//
Compound: N#CC(C#N)=NNc1ccc2cn[nH]c2c1
T/C: 108 % of control
//
Compound: COc1c(C=O)c2c(c(OC)c1OC)-c1ccc(OC)c(=O)cc1[C@@H](NC(C)=O)CC2
T/C: 120 % of control
//
Compound: O=C(O)C1C2CC3C(C2)C31.[Ag] (stereo not given)
T/C: 88 % of control
//
Compound: C(C#CCN1CCOCC1)#CCN1CCOCC1
T/C: 102 % of control
//
Compound: CC(C)CC(NC(=O)CNC(=O)CNC(=O)OCc1ccccc1)C(=O)O (stereo not given)
T/C: 92 % of control
//
Compound: COc1cccc(/C=C/[N+](=O)[O-])c1OC
T/C: 94 % of control
//
Compound: CC1=C(CCC(=O)O)c2cc3nc(cc4[nH]c(cc5[nH]c(cc1n2)c(C)c5C(C)O)c(C)c4C(C)O)C(C)=C3CCC(=O)O (stereo not given)
T/C: 107 % of control
//
Compound: CC1=C2C(=CO[C@H](C)[C@H]2C)C(=O)C(C(=O)O)=C1O
T/C: 102 % of control
//
Compound: COc1cc(OC)c(OC)cc1/C=C\c1ccnc2ccccc12
T/C: 98 % of control
//
Compound: c1cc(OCC2CO2)ccc1OCC1CO1 (stereo not given)
T/C: 109 % of control
